System: MDA-MB-435
Assay: NCI tumour cell line growth inhibition, 48 h
Active and inactive are the calls of the source. Cut-off read from the data, not from the text of the source: active = GI50 up to about 1.1 µM and inactive = higher.
Your answer must be one of the following: active, inactive

{"molecule": "C=CCn1cnc2c(O)nc(Nc3ccccc3)nc21", "class name": "inactive"}

INPUT: Tell me the assay call for O=C(/C=C/c1ccccc1)Oc1cccc(Br)c1 please.
OUTPUT: inactive

INPUT: Subsequent entry: COCN1C(=O)[C@@H]2C[C@@H](O)CN2C(=O)c2ccccc21
OUTPUT: inactive

INPUT: Subsequent entry: COc1cc(-c2c3c(cc4c2OCO4)[C@@H](Nc2ccc(-c4ccc(-c5ccc(N[C@@H]6c7cc8c(cc7C(c7cc(OC)c(O)c(OC)c7)[C@H]7C(=O)OC[C@H]67)OCO8)cc5)cc4)cc2)[C@H]2COC(=O)[C@@H]2C3)cc(OC)c1O (stereo partly drawn)
OUTPUT: inactive

INPUT: Subsequent entry: CCC(=O)N1NC(=O)C(CC)(CC)C1=O
OUTPUT: inactive

INPUT: Subsequent entry: CCOC(=O)CCC(NC(=O)c1ccc(Oc2nc3ccccc3nc2C(=O)OCC)cc1)C(=O)OCC (stereo not drawn)
OUTPUT: inactive

INPUT: Subsequent entry: CC12CCC(C(Br)(Br)C1=O)C2(C)C (stereo not drawn)
OUTPUT: active

INPUT: Subsequent entry: CC(C)(C)[Si](C)(C)OCCc1ccccc1C1CC2(S(=O)(=O)c3ccccc3)ON1CC2S(=O)(=O)c1ccccc1 (stereo not drawn)
OUTPUT: inactive

INPUT: Subsequent entry: COC(=O)C1=C(C)NC(C)=C(C(=O)OC)C1c1ccc(N=O)cc1
OUTPUT: inactive

INPUT: Subsequent entry: COc1ccc(C2C3COc4ccccc4C3=NN2c2ccccc2)cc1 (stereo not drawn)
OUTPUT: inactive

INPUT: Subsequent entry: N#C/C(=C\Nc1ccccn1)C(=O)c1ccco1
OUTPUT: inactive

INPUT: Subsequent entry: CCCC[C@H]1[C@@H](OCOc2ccccc2)COC(=O)N1[C@H](C)c1ccccc1
OUTPUT: inactive

INPUT: Subsequent entry: Cc1[nH]c(=O)[nH]c(=O)c1C(=O)N(CCO)Cc1ccccc1
OUTPUT: inactive
